Target: pooled human IgG
I'd be grateful if you could share measured Enzyme Activity Endpoint Assay: Fc for these entries.
One number for each entry, in ng/µL.

PRT-2 (protein) MANQEIRYSEVTPYHVTSVWTKGVTPPAKFTQGEDVFHAPYVANQGWYDITKTFNGKDDLLCGAATAGNMLHWWFDQNKEKIEAYLKKHPDKQKIMFGDQELLDVRKVINTKGDQTNSELFNYFRDKAFPGLSARRIGVMPDLVLDMFINGYYLNVYKTQTTDVNRTYQEKDRRGGIFDAVFTRGDQSKLLTSRHDFKEKNLKEISDLIKKELTEGKALGLSHTYANVRINHVINLWGADFDSNGNLKAIYVTDSDSNASIGMKKYFVGVNSAGKVAISAKEIKEDNIGAQVLGLFTLSTGQDSWNQTN : 94
PRT-45 (protein) MANQEIRYSEVTPYHVTSVWTKGVTPPANFTQGEDVFHAPYVANQGWYDITKTFNGGDDLLCGAATAGNMLHWWFDQNKEQIDRYLEEHPEKQKINFNGEQMFDVKEAIDTKNSQTDSKLFEYFKEKAFPYLSTKHLGVFPDLVLDMFINGYRLSLTNHGPTPVKEGSKDPRGGIFDAVFTRGDQSKLLTSRHDFKEKNLEEISDLIKKELTEGKALGLSHTYANVRINHVINLWGADFDSNGNLKAIYVTDSDSNASIGMKKYFVGVNSAGKVAISAKEIKEDNIGAQVLGLFTLSTGQDSWNQTN : 76
PRT-33 (protein) MANQEIRYSEVTPYHVTSVWTKGVTPPANFTQGEDVFHAPYVANQGWYDITKTFNGKDDLLCGAATAGNMLHWWFDQNKDQIKRYLKEHPEKQKINFNGEQMFDVKEAIDTKNHQLDSKLFEYFKEKAFPYLSTKHLGVFPDHVIDMFINGYRLSLTNHGPTPVKEGSKDPRGGIFDAVFTRGDQSKLLTSRHDFKEKNLKEISDLIKKELTEGKALGLSHTYANVRINHVINLWGADFDSNGNLKAIYVTDSDSNASIGMKKYFVGVNSAGKVAISAKEIKEDNIGAQVLGLFTLSTGQDSWNQTN : 93
PRT-279 (protein) MVTSVWTKGVTPPTDFIYGEDVLHAPYKAGQGWYDITKLFNGKDNLLCGAATAGNMLHWWFDQNKEQIENYLKKHPEKQKIIFNNQELFDLKAAIDTKDSQLDSKLFEYFLEKAFPYLSTKHLGVFPDHVIDMFINGYRLSLTNHGPTPVKRGSKDKRGGIFDAVFTRGVQSKLLTNRHDLKNKTLKEISDLIKQELTEGKALGISHTYANVRINHVINLWGADFDAEGNLEAIAVTDSDTNASIGMKKYFVGVNSSGKVAISAKEIEEDNIGAQVLGLFTLSTGQDIWNQTN : 359
PRT-14 (protein) MANQEIRYSEVTPYTVTSVWTKGVTPPADFTQGEDVFHAPYIANQGWYDITKTFNGKDDLLCGAATAGNMLHWWFDQNKEQIERYLKKHPEKQKINFNGEQMFDVKEAIDTKDSQTDSELFEYFKEKAFPYLSTKHLGVFPDHVLDMFINGYRLSLTNHGPTPVKEGSKDPRGGIFDAVFTRGDQSKLLTNRHDFKEKTLSEISDLIKKELTEGKALGLSHTYANVRINHVINLWGADFDSEGNLEAIYVTDSDSNASIGMKKYFVGVNSAGKVAISAKEIKEDNIGAQVLGLFTLSTGQDIWNQTN : 94

Please look at the items below and tell me Enzyme Activity Endpoint Assay: Fc for each one, in order.
1. PRT-41 (protein) MANQEIRYSEVTPYHVTSVWTKGVTPPANFTQGEDVFHAPYVANQGWYDITKTFNGKDDLLCGAATAGNMLHWWFDQNKDYIDRYLEEHPEKQKINFNGEQMFDVKEAIDTKNSQLDSKLFEYFKEKAFPYLSTKHLGVFPDLVLDMFINGYRLSLTNHGPTPVKEGSKDPRGGIFDAVFTRGDQSKLLTSRHDFKEKNLKEISDLIKKELTEGKALGLSHTYANVRINHVINLWGADFDSNGNLKAIYVTDSDSNASIGMKKYFVGVNSAGKVAISAKEIKEDNIGAQVLGLFTLSTGQDSWNQTN
2. PRT-593 (protein) MANQEIRYSEETPSTITSVWTKGVTPPTDFIQNEDVLHAPYIANQGWYDITKTFNGKDDLLCGAATAGNMLHWWFDQNKEQIENYLKKHPEKQKINFNGEQMFDVKEAIDTKDHQTDSALFEYFKDKAFPYLSTKHLGVFPDHVIDMFINGYRLSLTNHGPTPVKRGTKDPRGGIFDAVFTRGDQSKLLTSRHDFKEKTLNEISDLIKQELTEGKALGLSHTYANVRINHVINLWGADFNAEGNLEAIYVTDSDSNASIGMKKYYVGVNSAGKVAISAKEIEGDNIGAQVLGLFTLSTGQDIWNQTNLEHHHHHH
3. PRT-529 (protein) MANQEIRYSEETPKTITSVWTKGVTPPTDFIKNEDVLHAPYIANQGWYDITKTFNGKDDLLCGAATAGNMLHWWFDQNKEEIENYLKKHPEKQKINFNGEQMFDVKEAIDTKDSQTDSALFEYFKDKAFPNLSTKHLGVMPDLVLDMFINGYYLSLGKHGPTPVKRGTKDPRGGIFDAVFTRGDQTKLLTARHDFKEKTLNEISDLIKQELTEGKALALSHTYANVRINHVINLWGADFNSEGNLEAIYVTDSDSNASIGMKKYYVGVNAAGKVAISAKEIEGDNIGAQVLGLFTLSTGQDIWEQTNLEHHHHHH

Response given:
94
396
177

Hello, the source for this data is patent US20250027068, in case you need it.
